- system-name: FXR (Homo sapiens (Human), UniProt Q96RI1)
- Sequence (Q96RI1 262-486): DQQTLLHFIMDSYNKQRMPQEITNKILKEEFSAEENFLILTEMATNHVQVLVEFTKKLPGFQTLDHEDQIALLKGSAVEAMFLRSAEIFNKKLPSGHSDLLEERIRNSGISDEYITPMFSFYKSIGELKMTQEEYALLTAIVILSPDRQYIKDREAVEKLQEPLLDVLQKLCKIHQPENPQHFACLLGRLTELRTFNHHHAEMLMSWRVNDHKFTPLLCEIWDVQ
- experiment-notes: transient human FXR/Gal4-luciferase reporter assay
- Type: cell-based
- reported-conditions: Gal4-hFXR LBD fusion in HEK293 reporter cells; relative to 8 μM GW-4064
Property: log10(EC50); scope: individual molecules
Friendly reminder: values = log10 of EC50, unit nM.

Solved cases (6 shown):
O=C(O)Cc1ccc(/C=C/C23CCC(OCc4c(-c5c(Cl)cncc5Cl)noc4C4CC4)(CC2)CC3)cc1F [Example 594]; 2.18
O=C(O)c1cc2ccc(/C=C/C34CCC(OCc5c(-c6c(Cl)cncc6Cl)noc5C5CC5)(CC3)CC4)cc2c(Cl)n1 [Example 599]; 1.18
O=C(O)c1cc2ccc(/C=C/C34CCC(OCc5c(-c6c(Cl)cncc6Cl)noc5C5CC5)(CC3)CC4)cc2c(N2CC(O)C2)n1 [Example 610]; 1.89
Cc1c(OCC23CCC(OCc4c(-c5c(Cl)cncc5Cl)noc4C4CC4)(CC2)CC3)nn(C)c1C(=O)O [Example 534]; 2.39
O=C(O)c1cc2ccc(/C=C/C34CCC(OCc5c(-c6c(Cl)cncc6Cl)noc5C5CC5)(CC3)CC4)cc2c(OC2CC2)n1 [Example 614]; 1.71
Cn1c(C(=O)O)cc2ccc(/C=C/C34CCC(OCc5c(-c6c(Cl)cncc6Cl)noc5C5CC5)(CC3)CC4)cc21 [Example 595]; 1.69

Next:
Observed log10(EC50), FXR (Homo sapiens (Human), UniProt Q96RI1), COc1nc(C(=O)O)nc2ccc(/C=C/C34CCC(OCc5c(-c6c(Cl)cncc6Cl)noc5C5CC5)(CC3)CC4)cc12 [Example 590] : 2.97

---

Property: log10 EC50; scope: individual compounds
- system-name: FXR (Homo sapiens (Human), UniProt Q96RI1)
- experiment-notes: FXR EC50 (FXR agonist activity reported with each example)
- Type: cell-based
Friendly reminder: values = log10 of EC50, unit nM.

O=C(O)c1cc(OCC23CCC(/C=C/c4c(-c5c(Cl)cncc5Cl)noc4C4CC4)(CC2)OC3)cc(C(F)(F)F)c1; 2.51

Next:
Memo: O=C(O)c1cc(F)c2nc(C34CCC(OCc5c(-c6ccccc6C(F)(F)F)noc5C5CC5)(CC3)CC4)sc2c1 , reported log10 EC50: 2.70

---

- system-name: FXR (Homo sapiens (Human), UniProt Q96RI1)
- experiment-notes: FXR EC50 (FXR agonist activity reported with each example)
- Assay type: cell-based
Note to self: class labels come from recorded EC50, ranges listed here: zone 1 = under 200 nM, zone 2 = from 200 nM up to 300 nM, zone 3 = 300 nM and over

Into which category would you place COc1c(C#CC23CCC(OCc4c(-c5c(Cl)cncc5Cl)noc4C4CC4)(CC2)CC3)cccc1C(=O)O [Example 381] ?
zone 2

Into which category would you place O=C(O)c1cccc(-c2nnc(C34CCC(OCc5c(-c6ccccc6OC(F)(F)F)noc5C5CC5)(CC3)CC4)s2)c1 ?
zone 3

Into which category would you place O=C(O)c1ccc(-c2noc(C34CCC(OCc5c(-c6c(Cl)cncc6Cl)noc5C5CC5)(CC3)CO4)n2)cc1 ?
zone 1

Into which category would you place O=C(O)c1ccc(-c2noc(C34CCC(OCc5c(-c6c(Cl)cccc6Cl)noc5C5CC5)(CC3)CC4)n2)nc1 ?
zone 3

Into which category would you place Cn1cc(C(=O)O)c2ccc(C#CC34CCC(OCc5c(-c6c(Cl)cncc6Cl)noc5C5CC5)(CC3)CC4)nc21 ?
zone 2

Into which category would you place O=C(O)c1cccc(-c2noc(C34CCC(/C=C/c5c(-c6c(Cl)cncc6Cl)noc5C5CC5)(CC3)OC4)n2)c1 ?
zone 3

Into which category would you place NC(=O)c1ccc(C23CCC(CNc4c(-c5c(Cl)cccc5Cl)noc4C4CC4)(CC2)CO3)cc1 ?
zone 3

Into which category would you place COc1cc(C(=O)O)nc2ccc(OCC34CCC(OCc5c(-c6c(Cl)cncc6Cl)noc5C5CC5)(CC3)CC4)cc12 ?
zone 1

Into which category would you place O=C(O)c1ccc(C23CCC(/C=C/c4c(-c5c(Cl)cncc5Cl)noc4C4CC4)(CC2)CO3)cc1 ?
zone 1

Into which category would you place O=C(O)c1cccc2nc(C34CCC(COCc5c(-c6c(Cl)cccc6Cl)noc5C5CC5)(CC3)CC4)sc12 ?
zone 1

Into which category would you place CCCc1cc(C(=O)O)nc2c(F)cc(OCC34CCC(OCc5c(-c6c(Cl)cncc6Cl)noc5C5CC5)(CC3)CC4)cc12 ?
zone 1

Into which category would you place O=C(O)c1cc(F)c2nc(C34CCC(OCc5c(-c6ccccc6OC(F)(F)F)noc5C5CC5)(CC3)CC4)sc2c1 ?
zone 2

Into which category would you place COc1ccc(-c2noc(C34CCC(/C=C/c5c(-c6c(Cl)cncc6Cl)noc5C5CC5)(CC3)CC4)n2)cc1C(=O)NS(=O)(=O)C1CC1 ?
zone 2

Into which category would you place O=C(O)c1csc(OCC23CCC(OCc4c(-c5c(Cl)cncc5Cl)noc4C4CC4)(CC2)CC3)n1 ?
zone 1

All figures here come from patent US10730863B2.
